- System: Fibroblast
- ASSAY OVERVIEW: Multiplex assay against human fibroblast
- Type: toxicity, cell-based
- STATED CONDITIONS: 12 h, 10 µM, compound concentration 10 uM, replicate 1
# note: boundary value 10% maps to NO; Population Mitochondria Different-Phenotype (%) below it maps to YES

Example results:
>>> class("CN1CCN(Cc2ccc(Nc3ncc(Cl)c(Nc4ccccc4S(=O)(=O)N(C)C)n3)cc2)CC1 [DUBERMATINIB]")
"NO"
>>> class("CCc1ccc(OCc2ccccc2C(=O)Nc2ccc3nc(C)cc(N)c3c2)cc1.Cl")
"NO"

Is Population Mitochondria Different-Phenotype (%) strictly under 10% for the entry COC(=O)C1=C(C)NC(C)=C(C(=O)OCCCN2CCC(c3ccccc3)(c3ccccc3)CC2)[C@H]1c1cccc([N+](=O)[O-])c1 [NIGULDIPINE] ? NO

Find out if reported Population Mitochondria Different-Phenotype (%) for `CC(C)OC(=O)N1CCC(Oc2ncnc3c2cnn3-c2ccc(S(C)(=O)=O)cc2F)CC1` is less than 10% NO

----------
- Test system: U2OS
- ASSAY OVERVIEW: Multiplex assay against U2OS
- Assay type: toxicity, cell-based
- STATED CONDITIONS: human, 24 h, 1 µM, compound concentration 1 uM, replicate 1
Class (required): determined from Population Tubulin-Different-Phenotype (%); valid ranges are lower band: < 10%; central band: ≥ 10% and < 20%; upper band: ≥ 20%

Into which bin does this molecule go? `CC(C)OC(=O)N1CCC(Oc2ncnc3c2cnn3-c2ccc(S(C)(=O)=O)cc2F)CC1` central band

Bin this entry: Cc1c[nH]c2nccc(Oc3c(F)cc(Nc4cc(Cl)nc(N)n4)cc3F)c12 [BAY-549] central band

Classify this molecule: CCCSc1nc(N[C@@H]2C[C@H]2c2ccc(F)c(F)c2)c2nnn([C@@H]3C[C@H](OCCO)[C@@H](O)[C@H]3O)c2n1 [TICAGRELOR] lower band

Hello team, could you let me know which band the following molecule falls into: Cc1ccc2c(c1)c1c(n2CCc2ccc(C)nc2)CCN(C)C1 [LATREPIRDINE] upper band

Lab note: sort `O=c1cc(N2CCOCC2)oc2c(-c3cccc4c3sc3ccccc34)cccc12` into the matching Population Tubulin-Different-Phenotype (%) band. lower band

----------
Would you kindly list Population Mitochondria Different-Phenotype (%) for each of these compounds?
- Tested on: HEK-293T
- ASSAY OVERVIEW: Multiplex assay against HEK293T
- Type: toxicity, cell-based
- STATED CONDITIONS: human, 12 h, 10 µM, compound concentration 10 uM, replicate 2
Answers are plain numbers, in %.

Worked examples follow.
>>> readout_value("CN(c1ccccc1CNc1nc(Nc2ccc3c(c2)CC(=O)N3)ncc1C(F)(F)F)S(C)(=O)=O")
37
>>> readout_value("C=CC(=O)Nc1ccc2[nH]c(=O)n(C3CCN(Cc4ccc(-c5nc6cc[nH]c(=O)c6cc5-c5ccccc5)cc4)CC3)c2c1")
43
>>> readout_value("CC(C)c1noc(N2CCC(COc3ccc(-c4ccc(S(C)(=O)=O)cc4)nc3)CC2)n1")
26

# return Population Mitochondria Different-Phenotype (%) for each item in the list
1. C=CC(=O)Nc1cccc(Oc2nc(Nc3ccc(N4CCN(C)CC4)cc3OC)ncc2Cl)c1
2. CCc1nn(CCCN2CCN(c3cccc(Cl)c3)CC2)c(=O)n1CCOc1ccccc1.Cl [NEFAZODONE HYDROCHLORIDE]
3. Cc1ccc2c(c1)c1c(n2CCc2ccc(C)nc2)CCN(C)C1 [LATREPIRDINE]
4. CCCSc1nc(N[C@@H]2C[C@H]2c2ccc(F)c(F)c2)c2nnn([C@@H]3C[C@H](OCCO)[C@@H](O)[C@H]3O)c2n1
5. CC1=C(C(=O)Nc2cc3cn[nH]c3cc2F)C(c2ccc(C(F)(F)F)cc2)CC(=O)N1 (stereo not drawn)

1. 15
2. 100
3. 96
4. 95
5. 24

----------
Exercise: for every item that follows, state its recorded Population Hoechst High Intensity Objects (%).
- System: Fibroblast
- ASSAY OVERVIEW: Multiplex assay against human fibroblast
- Format: toxicity, cell-based
- STATED CONDITIONS: 12 h, 10 µM, compound concentration 10 uM, replicate 1
Give bare numbers, in %.

>>> readout_value("CCCSc1nc(N[C@@H]2C[C@H]2c2ccc(F)c(F)c2)c2nnn([C@@H]3C[C@H](OCCO)[C@@H](O)[C@H]3O)c2n1")
12

For each of the molecules below, state Population Hoechst High Intensity Objects (%).
1. O=C(c1cc2c(cc1F)OC(c1ccc(F)cc1)(c1ccc(Cl)cc1Cl)O2)N1CCOCC1 (stereo not drawn)
2. Cl.O=C(O)c1cc(-c2ccc(C3CCNCC3)cc2)c2ccc(-c3ccc(C(F)(F)F)cc3)cc2c1
3. CCc1ccc(OCc2ccccc2C(=O)Nc2ccc3nc(C)cc(N)c3c2)cc1.Cl
4. C=CC(=O)Nc1ccc2[nH]c(=O)n(C3CCN(Cc4ccc(-c5nc6cc[nH]c(=O)c6cc5-c5ccccc5)cc4)CC3)c2c1
5. CC1=C(C(=O)Nc2cc3cn[nH]c3cc2F)C(c2ccc(C(F)(F)F)cc2)CC(=O)N1 (stereo not drawn)
6. CC(C)Oc1ccccc1C(=O)Nc1ccccc1C(=O)Nc1cccc(S(=O)(=O)C(F)(F)F)c1
7. CN1CCN(Cc2ccc(Nc3ncc(Cl)c(Nc4ccccc4S(=O)(=O)N(C)C)n3)cc2)CC1

1. 12
2. 18
3. 22
4. 15
5. 9
6. 11
7. 14

----------
- Test system: U2OS
- ASSAY OVERVIEW: Incucyte cell viability with U2OS; note: filed as whole numbers so only -1 and 0 and 1 occur
- Assay type: toxicity, cell-based
- STATED CONDITIONS: human, 6 h, 10 µM, compound concentration 10 uM, replicate number 2, timepoint 6 hours
Exercise: state measured Growth Rate for each of the compounds provided.
Answers are plain numbers.

Answered examples (4):
>>> readout_value("CC(C)NC(=O)N1CC[C@H](NC2=Nc3cc(F)ccc3N(CC(F)F)c3ccc(Cl)cc32)C1")
1
>>> readout_value("CN(C)C(=O)/C(C#N)=C/c1ccc(-c2nc3cnc4c(ccn4C)c3n2C2CCCCC2)o1")
1
>>> readout_value("Cc1csc(NC(=O)c2cc(F)cc(Oc3cncnc3)c2)n1")
0
>>> readout_value("O=C(O)CC/C=C\\C[C@@H]1CO[C@H](c2ccccc2Cl)O[C@@H]1c1ccccc1O")
0

Here is the next item to consider.
Growth Rate reported for this compound C[C@H](c1ccc(F)cc1)N(Cc1cccc(C(=O)O)c1)C(=O)c1cnc2ccccc2c1 [PF-05105679] : 1

----------
- Tested on: HEK-293T
- ASSAY OVERVIEW: Multiplex assay against HEK293T
- Type: toxicity, cell-based
- STATED CONDITIONS: human, 24 h, 10 µM, compound concentration 10 uM, replicate 1
Use 50% as the dividing line for Population Pyknosed Nuclei (%), with the line itself on the class 1 side and lower values as class 0.

Study these solved cases before continuing.
>>> class("CC(C)(C)NC[C@H](O)COc1nsnc1N1CCOCC1")
"class 0"
>>> class("COc1cc(Nc2nccc(-c3cnn4nc(OC)ccc34)n2)cc(C(F)(F)F)c1")
"class 0"
>>> class("C=CC(=O)Nc1cccc(Sc2nc(Nc3ccc(N4CCN(C)CC4)cc3)ncc2Cl)c1")
"class 0"
>>> class("Cc1ccc2c(c1)c1c(n2CCc2ccc(C)nc2)CCN(C)C1 [LATREPIRDINE]")
"class 0"
>>> class("C[C@]12CC[C@@H]3c4ccc(O)cc4CC[C@H]3[C@@H]1CC[C@@H]2O")
"class 0"

Record `Cl.O=C(O)c1cc(-c2ccc(C3CCNCC3)cc2)c2ccc(-c3ccc(C(F)(F)F)cc3)cc2c1` ; criterion: Population Pyknosed Nuclei (%) no lower than 50%. Met? class 1

----------
- Tested on: HEK-293T
- ASSAY OVERVIEW: Multiplex assay against HEK293T
- Type: toxicity, cell-based
- STATED CONDITIONS: human, 24 h, 10 µM, compound concentration 10 uM, replicate 1
In plain terms, low Total Cell Count, meaning strictly below 300, gives 1, and everything else gives -1.

Sample answers from the record:
>>> class("Cc1nc(N2CC[C@H](O)C2)ncc1-c1cc(C(F)(F)F)cc2[nH]ncc12")
-1
>>> class("COc1cc2ncn(-c3cc(OCc4ccccc4C(F)(F)F)c(C(N)=O)s3)c2cc1OC [GW843682X]")
1
>>> class("C=CC(=O)Nc1cccc(Sc2nc(Nc3ccc(N4CCN(C)CC4)cc3)ncc2Cl)c1")
-1

Pending molecule:
Is 300 strictly greater than the molecule's reported Total Cell Count? molecule: `CC(C)NC(=O)N1CC[C@H](NC2=Nc3cc(F)ccc3N(CC(F)F)c3ccc(Cl)cc32)C1` 1

----------
Field: Population Membrane Permeable-Phenotype (%). Provide a value for each of the molecules that follow.
- Tested on: HEK-293T
- ASSAY OVERVIEW: Multiplex assay against HEK293T
- Assay type: toxicity, cell-based
- STATED CONDITIONS: human, 24 h, 10 µM, compound concentration 10 uM, replicate 2
Answers are plain numbers, in %.

Worked examples, 6 molecules total:
>>> readout_value("CC(C)(C)NC[C@H](O)COc1nsnc1N1CCOCC1")
4
>>> readout_value("CCCSc1nc(N[C@@H]2C[C@H]2c2ccc(F)c(F)c2)c2nnn([C@@H]3C[C@H](OCCO)[C@@H](O)[C@H]3O)c2n1")
0
>>> readout_value("Cl.O=C(O)c1cc(-c2ccc(C3CCNCC3)cc2)c2ccc(-c3ccc(C(F)(F)F)cc3)cc2c1")
0
>>> readout_value("Cc1ccc2c(c1)c1c(n2CCc2ccc(C)nc2)CCN(C)C1 [LATREPIRDINE]")
2
>>> readout_value("CNC(=O)Nc1ccc(-c2nc(N3CC4CCC(C3)O4)c3cnn(C4CCC5(CC4)OCCO5)c3n2)cc1")
17
>>> readout_value("COC(=O)C1=C(C)NC(C)=C(C(=O)OCCCN2CCC(c3ccccc3)(c3ccccc3)CC2)[C@H]1c1cccc([N+](=O)[O-])c1")
50

Now consider a different molecule.
Measured Population Membrane Permeable-Phenotype (%) of `COc1ccc(-c2ccc3ncc4c(c3c2)n(-c2ccc(N3CCNCC3)c(C(F)(F)F)c2)c(=O)n4C)cn1.O=C(O)/C=C\C(=O)O` : 25
